Documented EC50 across a set of molecules
# System: Hepatitis C virus
# Assay Method Text: Antiviral activity against HCV genotype 2a JFH1 infected in human Huh7.5.1 cells incubated for 72 hrs by GFP based J399EAM HCV reporter assay
# Type: functional, organism-based, Hepacivirus hominis
# Condition Parameters: subtype 2a JFH1, Huh-7, 72 h
# output: bare number, implied unit µM

| Smiles Str | Endpoint Result |
| --- | --- |
| COCc1c(C(=O)OCc2ccc(Cl)cc2)c(=O)c2cc(F)c(OC)cc2n1Cc1ccc(Cl)cc1 | 11.1 |
| Nc1ccc(-n2ccc(=O)c3c(=O)n(Cc4ccc(Cl)cc4)ccc32)cc1C(F)(F)F | 2.5 |

[in] Which value of EC50 has been reported for COCc1c(C(=O)OCc2ccc(Cl)cc2)c(=O)c2cc(F)c(N3CCN(C)CC3)cc2n1Cc1ccc(Cl)cc1 in the records?
[out] 0.4

[in] Item under review: O=C(Nc1ccc(-n2ccc(=O)c3c(=O)n(Cc4ccc(Cl)cc4)ccc32)c(C(F)(F)F)c1)c1cc(F)ccc1F . Reported EC50?
[out] 1.4

[in] Look up EC50: Nc1ccc(-n2ccc(=O)c3c(=O)n(Cc4ccc(Cl)cc4)ccc32)cc1Cl
[out] 6.4

[in] Could you tell me which EC50 is on file for O=C(Nc1ccc(-n2ccc(=O)c3c(=O)n(Cc4ccc(Cl)cc4)ccc32)cc1)c1cc(F)ccc1F ?
[out] 4.6

[in] What value of EC50 has been reported for the following molecule? CN1CCN(c2cc3c(cc2F)c(=O)c(C(=O)OCc2ccc(Cl)cc2)cn3Cc2ccc(Cl)cc2)CC1
[out] 4.3
